biological target: HPK1 (Homo sapiens, UniProt Q92918); construct: A HiBiT tag was introduced by CRISPR on the N terminus of HPK1 in Jurkat cells; host or cells: Jurkat cells (ATCC TIB-152), monoclonal line with CRISPR knock-in of HiBiT at the endogenous HPK1 locus; assay: HPK1 Cellular HiBit Degradation Assay; type: cell-based; details: Jurkat, HiBiT HPK1 Jurkat cells, 24 hrs; maximum degradation vs DMSO vehicle control; read-out: Dmax Category
Sequence (Q92918 whole entry): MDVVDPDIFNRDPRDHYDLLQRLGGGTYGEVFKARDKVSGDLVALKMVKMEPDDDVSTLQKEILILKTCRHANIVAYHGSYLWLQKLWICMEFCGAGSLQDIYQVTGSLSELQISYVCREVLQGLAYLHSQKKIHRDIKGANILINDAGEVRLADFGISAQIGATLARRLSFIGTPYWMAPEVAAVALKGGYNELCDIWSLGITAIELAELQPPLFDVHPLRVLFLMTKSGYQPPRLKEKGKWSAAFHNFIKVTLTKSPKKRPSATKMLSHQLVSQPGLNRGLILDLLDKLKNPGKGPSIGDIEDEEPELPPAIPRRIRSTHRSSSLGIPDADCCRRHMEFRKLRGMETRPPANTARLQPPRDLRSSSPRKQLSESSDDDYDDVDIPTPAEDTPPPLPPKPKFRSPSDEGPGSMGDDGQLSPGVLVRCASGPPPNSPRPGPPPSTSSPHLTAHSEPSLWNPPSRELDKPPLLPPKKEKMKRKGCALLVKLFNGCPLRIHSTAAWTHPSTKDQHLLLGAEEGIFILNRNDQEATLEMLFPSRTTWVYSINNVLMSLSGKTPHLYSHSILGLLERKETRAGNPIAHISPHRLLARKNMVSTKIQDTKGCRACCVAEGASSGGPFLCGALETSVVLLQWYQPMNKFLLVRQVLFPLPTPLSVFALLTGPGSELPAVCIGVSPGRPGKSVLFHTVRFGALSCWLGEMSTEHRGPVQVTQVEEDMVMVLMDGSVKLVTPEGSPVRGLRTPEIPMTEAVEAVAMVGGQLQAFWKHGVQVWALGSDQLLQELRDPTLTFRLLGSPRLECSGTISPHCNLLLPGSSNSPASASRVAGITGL
Please go through the items and note down their Dmax.

{"compound": "CC(C)n1cnc2cc(-c3ccc4c(c3)N([C@H]3C[C@@H](N5CCCCC5)C3)C(=O)C43CCN(C(=O)[C@@H]4CCC[C@H](NC(=O)CC5CCN(c6ccc(C7CCC(=O)NC7=O)cn6)CC5)C4)CC3)nc(NC3CC3)c21 (mixture of isomers) [Example 292]", "study-target": "HPK1 (Homo sapiens, UniProt Q92918)", "Dmax": "70 to 85%"}

// next item, Dmax requested
**Q:** Query the reported Dmax for HPK1 (Homo sapiens, UniProt Q92918); item: CC(C)n1cnc2cc(-c3ccc4c(c3)N([C@H]3C[C@@H](N5CCCCC5)C3)C(=O)C43CCN(C(=O)C4(C5CCN(C(=O)C6CCN(c7ccc(C8CCC(=O)NC8=O)cn7)CC6)CC5)CCC4)CC3)nc(NC3CC3)c21 (mixture of isomers) [Example 300]
**A:** 70 to 85%

These measurements were taken from patent US12091426B2.
